Listed below: ratio of binding signal (RLU) to isotype control values for each entry.
Tgt: T1, full length human MSR1 with a C-terminal Myc tag, on HEK293.Myc.hMSR1 cells (human, UniProt P21757 1-451)
T1 construct: whole, on cells; stably expressed on engineered HEK293 cells; not shown: C-terminal Myc tag
T1 sequence (looked up): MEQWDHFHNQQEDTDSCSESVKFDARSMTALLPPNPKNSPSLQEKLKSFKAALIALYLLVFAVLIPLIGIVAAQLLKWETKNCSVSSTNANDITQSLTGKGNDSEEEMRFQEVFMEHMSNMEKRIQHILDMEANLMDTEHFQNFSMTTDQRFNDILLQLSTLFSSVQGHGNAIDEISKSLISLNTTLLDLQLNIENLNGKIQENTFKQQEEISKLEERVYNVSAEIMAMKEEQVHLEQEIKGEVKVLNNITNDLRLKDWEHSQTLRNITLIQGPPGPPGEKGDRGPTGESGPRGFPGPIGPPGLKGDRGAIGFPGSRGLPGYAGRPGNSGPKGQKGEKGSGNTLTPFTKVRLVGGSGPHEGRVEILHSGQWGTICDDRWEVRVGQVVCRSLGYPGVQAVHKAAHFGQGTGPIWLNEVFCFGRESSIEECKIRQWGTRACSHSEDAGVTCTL
Method notes: ECL cell binding, HEK293.Myc.hMSR1 cells, 11 nM
Number only, in fold; omit the unit.

// solved cases for ratio of binding signal (RLU) to isotype control follow
INSERT INTO results (binder, obs_value) VALUES
  ('H1H27739P-N297Q (antibody, human IgG1, V domains shown, human IgG1 Fc with N297Q) VH: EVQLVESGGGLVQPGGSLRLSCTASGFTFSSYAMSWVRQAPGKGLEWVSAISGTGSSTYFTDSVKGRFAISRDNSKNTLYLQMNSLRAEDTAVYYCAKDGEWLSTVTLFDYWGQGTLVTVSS VL: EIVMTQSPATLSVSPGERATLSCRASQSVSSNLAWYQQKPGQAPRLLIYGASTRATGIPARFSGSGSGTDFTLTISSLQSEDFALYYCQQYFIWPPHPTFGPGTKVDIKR', 22),
  ('H1H27731P-N297Q (antibody, V domains shown, human IgG1 Fc with N297Q) VH: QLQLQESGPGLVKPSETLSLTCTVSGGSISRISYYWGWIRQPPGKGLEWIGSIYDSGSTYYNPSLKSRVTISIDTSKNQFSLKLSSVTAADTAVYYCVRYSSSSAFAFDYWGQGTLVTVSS VL: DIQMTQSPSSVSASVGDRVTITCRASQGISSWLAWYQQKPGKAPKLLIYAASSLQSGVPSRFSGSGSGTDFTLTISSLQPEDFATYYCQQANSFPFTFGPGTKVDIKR', 48);

Then this binder:
For H1H27729P-N297Q (antibody, human IgG1, V domains shown, human IgG1 Fc with N297Q) VH: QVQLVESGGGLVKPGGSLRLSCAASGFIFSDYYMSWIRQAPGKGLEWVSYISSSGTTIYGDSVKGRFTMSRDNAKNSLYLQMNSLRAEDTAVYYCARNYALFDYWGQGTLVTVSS VL: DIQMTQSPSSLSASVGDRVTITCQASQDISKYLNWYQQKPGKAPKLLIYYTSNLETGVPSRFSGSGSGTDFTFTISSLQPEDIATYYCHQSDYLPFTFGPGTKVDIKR , what is its reported ratio of binding signal (RLU) to isotype control? 17
